# Test system: NOMO1
# assay: cell viability relative to DMSO control; higher = less cytotoxic
# condition.summary: RPMI 5 mM glucose + 10% dialyzed FBS; 48 h; 0.00702 µM
readout: cell viability (%)
State the answer as a number, implicitly in %.

Dear colleague, I am looking for the recorded cell viability of the following compound: CC(C)C[C@H](CC(=O)O)C(=O)N[C@@H](Cc1c[nH]c2ccccc12)C(=O)N[C@@H](C)c1ccccc1
105

Consider the compound Nc1nccc(-c2ccc3noc(-c4ccc(Cl)cc4)c3c2)n1 and give its measured cell viability.
115

For CC[C@H]1OC(=O)[C@H](C)[C@@H](O[C@H]2C[C@@](C)(OC)[C@@H](O)[C@H](C)O2)[C@H](C)[C@@H](O[C@@H]2O[C@H](C)C[C@H](N(C)C)[C@H]2O)[C@](C)(O)C[C@@H](C)/C(=N\OCOCCOC)[C@H](C)[C@@H](O)[C@]1(C)O , what is its reported cell viability?
83.3

Please report the recorded cell viability for O=c1oc2cc(O)ccc2s1 .
117

// returns reported cell viability for input CC[C@H](C)C(=O)O[C@H]1C[C@@H](C)\C=C2\C=C/[C@H](C)[C@H](CC[C@@H]3C[C@@H](O)CC(=O)O3)[C@@H]12
84.6

Dear colleague, I am looking for the recorded cell viability of the following compound: Clc1ccc(C(c2ccccc2Cl)C(Cl)Cl)cc1 (configuration not stated)
129

Query: cell viability; subject: c1cc2c(cc1[C@H]1OC[C@H]3[C@@H]1CO[C@@H]3c1ccc3c(c1)OCO3)OCO2
123

* * *

# System: P12-Ichikawa
# assay: cell viability relative to DMSO control; higher = less cytotoxic
# condition.summary: RPMI 5 mM glucose + 10% FBS; 48 h; 0.0211 µM
readout: cell viability
The answer should read as a number with its unit following.

Return reported cell viability; argument: COCCCC/C(=N\OCCN)c1ccc(C(F)(F)F)cc1
79.8%

What value of cell viability has been reported for the following compound? O=C(O)c1cccc(-c2noc(-c3ccccc3F)n2)c1
106%

# lookup: cell viability of C[C@]12CC[C@H]3[C@@H](CC[C@@]45O[C@@H]4C(O)=C(C#N)C[C@]35C)[C@@H]1CC[C@@H]2O
120%

Which value of cell viability has been reported for CCCCCN(C)CCC(O)(P(=O)([O-])O)P(=O)(O)O in the records?
95.6%

Recorded cell viability of CC1(C)CCC(C)(C)c2cc(NC(=O)c3ccc(C(=O)O)cc3)ccc21 , please.
96.2%

Consider the compound shown here: COc1ccc(-n2c(C)c([N+](=O)[O-])c3ccc(O)cc32)cc1 What is its recorded cell viability?
126%

Given Cc1nnc(C(=O)NC(C)(C)c2nc(C(=O)NCc3ccc(F)cc3)c(O)c(=O)n2C)o1 , state its recorded cell viability.
106%

Data request, read-out cell viability, for COc1cc2c(cc1OC)CN(CCc1ccc(NC(=O)c3cccc4c(=O)c5cccc(OC)c5[nH]c34)cc1)CC2
111%

# lookup: cell viability of O=C(Nc1cccnc1)N1CCC(Cc2cccc(Oc3ccc(C(F)(F)F)cn3)c2)CC1
106%

* * *

# Test system: NOMO1
# assay: AUC of viability dose-response curve (% viability x log10 dose units); higher = less sensitive
# condition.summary: RPMI 5 mM glucose + 10% FBS; 48 h
readout: AUC of viability dose-response curve
Returns: the value as a bare number; no unit string appended.

Suppose we examine the compound N#CC1(c2cccc(C(=O)Nc3cc(Oc4ccc5nc(NC(=O)C6CC6)sc5n4)ccc3F)c2Cl)CC1 ; what AUC of viability dose-response curve value has been reported?
370

State the recorded AUC of viability dose-response curve for this entry: O=C1c2ccccc2-c2n[nH]c3cccc1c23
433

What does the record list as AUC of viability dose-response curve for C[C@@H](Cc1cc2c(c(C(N)=O)c1)N(CCCO)CC2)NCCOc1ccccc1OCC(F)(F)F ?
458

Please look up its AUC of viability dose-response curve: CN1CCN(c2ncc(-c3cc(Cl)cc(Cl)c3Cl)c(N)n2)CC1
305

Could you share which AUC of viability dose-response curve value was measured for Cc1nnc(C(=O)NC(C)(C)c2nc(C(=O)NCc3ccc(F)cc3)c(O)c(=O)n2C)o1 ?
449

Fill in: AUC of viability dose-response curve of Cc1cccc(-c2n[nH]cc2-c2ccc3ncccc3n2)n1 is ___
458

Please report the recorded AUC of viability dose-response curve for COc1cccc(OC)c1-c1cc(C(=O)NC2(C(=O)O)C3CC4CC(C3)CC2C4)nn1-c1ccnc2cc(Cl)ccc12 (configuration not stated) .
473

Would you kindly share the measured AUC of viability dose-response curve for COC1=CC=C(C=C1)C/2=C(OC3O[C@@H](C)[C@H](O)[C@@H](O)[C@H]3O)/C(=O)C4=C(O2)C(=C(OC5O[C@H](CO)[C@@H](O)[C@H](O)[C@H]5O)C=C4O)CC=C(C)C (some centres not stated) ?
457

I would be grateful if you could share the reported AUC of viability dose-response curve for CCOc1cc(C(=O)Nc2ccc(Cl)c(-c3nc4ccccc4[nH]3)c2)cc(OCC)c1OCC .
410

Requested field: AUC of viability dose-response curve. Item: O=C(O)c1cccnc1
402

Which measured AUC of viability dose-response curve value corresponds to COCC(=O)NC/C=C/c1ccc2ncnc(Nc3ccc(Oc4ccc(C)nc4)c(C)c3)c2c1 ?
372

Recorded AUC of viability dose-response curve for CC(C)[C@H](O)C(=O)N[C@@H](C)C(=O)N[C@@H]1C(=O)N(C)CCc2ccccc21 , please?
472

* * *

# System: P12-Ichikawa
# assay: cell viability relative to DMSO control; higher = less cytotoxic
# condition.summary: RPMI 5 mM glucose + 10% FBS; 48 h; 0.00234 µM
readout: cell viability (%)
# unit: % | format: bare number

For the compound CC[C@H]1OC(=O)[C@H](C)[C@@H](O[C@H]2C[C@@](C)(OC)[C@@H](O)[C@H](C)O2)[C@H](C)[C@@H](O[C@@H]2O[C@H](C)C[C@H](N(C)C)[C@H]2O)[C@](C)(O)C[C@@H](C)/C(=N\OCOCCOC)[C@H](C)[C@@H](O)[C@]1(C)O , what cell viability is on record?
85

Consider the compound shown here: Cc1nc(-c2ccc(-c3ccc(C(=O)N4CCc5cc6c(cc54)C4(CCN(C)CC4)CO6)cc3)c(C)c2)no1 What is its recorded cell viability?
112

Please report the recorded cell viability for COc1cccc(OC)c1-c1cc(C(=O)NC2(C(=O)O)C3CC4CC(C3)CC2C4)nn1-c1ccnc2cc(Cl)ccc12 (configuration not stated) .
119

Field request: cell viability | item: Nc1cc(N2CCCCC2)nc(N)[n+]1[O-]
128

What value of measured cell viability is listed for COc1c(N2C[C@@H]3CCCN[C@@H]3C2)c(F)cc2c(=O)c(C(=O)O)cn(C3CC3)c12.Cl.O ?
112

Item COc1cc(C[C@@H](CO)[C@H](CO)Cc2ccc(O)c(OC)c2)ccc1O has what recorded cell viability?
95.1

Query (compound): COc1ccc(/C=C/C(=O)Nc2ccccc2C(=O)O)cc1OC ; field requested: cell viability
108

* * *

# Test system: NOMO1
# assay: cell viability relative to DMSO control; higher = less cytotoxic
# condition.summary: RPMI 5 mM glucose + 10% FBS; 48 h; 15.4 µM
readout: cell viability (%)
Numeric only. Scale: %

Would you kindly share the measured cell viability for CC1(C)CCC(C)(C)c2cc(NC(=O)c3ccc(C(=O)O)cc3)ccc21 ?
94.4

// cell viability lookup, key: COCC(=O)NC/C=C/c1ccc2ncnc(Nc3ccc(Oc4ccc(C)nc4)c(C)c3)c2c1
50.1

Name the recorded cell viability for Cc1n[nH]c2ccc(-c3cncc(OC[C@@H](N)Cc4ccccc4)c3)cc12 .
12.9

Quick one: cell viability of CC(C)[C@H](O)C(=O)N[C@@H](C)C(=O)N[C@@H]1C(=O)N(C)CCc2ccccc21 ?
110

For COc1cc2c(cc1O)CCC1C2CC[C@@]2(C)C1CC[C@@H]2O (some centres undefined) , what is its reported cell viability?
25.1

Tell me the measured cell viability of Cc1noc(N[S+](=O)([O-])c2ccc(N)cc2)c1C , please.
91.6

Any idea what cell viability was measured for Cn1cnc(N)c2ncnc1-2 ?
18.5

Item O=C(Nc1ccccc1)Nc1ccc(-c2ccc(C(=O)[C@@H]3CCC[C@H]3C(=O)O)cc2)cc1 has what recorded cell viability?
83.5

Given CC(C)[C@]12O[C@H]1[C@@H]3O[C@@]34[C@@]5(C)CC\C6=C(COC6=O)/[C@@H]5C[C@@H]7O[C@]47[C@@H]2O , state its recorded cell viability.
4.13

* * *

# Tested on: SEM cells
# assay: cell viability relative to DMSO control; higher = less cytotoxic
# condition.summary: RPMI 5 mM glucose + 10% dialyzed FBS; 48 h; 0.000781 µM
readout: cell viability
Quote the value and follow it with the unit of measurement.

Which value of cell viability has been reported for CC[C@H]1OC(=O)[C@H](C)[C@@H](O[C@H]2C[C@@](C)(OC)[C@@H](O)[C@H](C)O2)[C@H](C)[C@@H](O[C@@H]2O[C@H](C)C[C@H](N(C)C)[C@H]2O)[C@](C)(O)C[C@@H](C)/C(=N\OCOCCOC)[C@H](C)[C@@H](O)[C@]1(C)O in the records?
103%

Consider the molecule CCC[C@H](Nc1nc(-c2ccc(NC(=O)NCC)c(OC)c2)ncc1C)c1cccnc1 and give its measured cell viability.
102%

Reported cell viability for CC(C)[C@H](O)C(=O)N[C@@H](C)C(=O)N[C@@H]1C(=O)N(C)CCc2ccccc21 : what is it?
120%

Form field: reported cell viability of Cn1cnc(N)c2ncnc1-2
108%

These entries and their values trace back to the supplement of paper PMC11451515.
